# target.system: Melanocortin receptor 4 (Homo sapiens, UniProt P32245)
# Sequence (P32245 whole entry): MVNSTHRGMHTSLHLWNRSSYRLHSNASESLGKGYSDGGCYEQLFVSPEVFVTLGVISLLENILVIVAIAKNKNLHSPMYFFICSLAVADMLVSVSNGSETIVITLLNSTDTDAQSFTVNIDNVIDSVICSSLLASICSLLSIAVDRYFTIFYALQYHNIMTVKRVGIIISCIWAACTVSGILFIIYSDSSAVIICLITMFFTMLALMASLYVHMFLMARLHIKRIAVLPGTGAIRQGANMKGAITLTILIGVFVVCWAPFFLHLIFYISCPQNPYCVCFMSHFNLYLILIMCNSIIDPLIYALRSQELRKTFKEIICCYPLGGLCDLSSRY
# test.protocol: Agonist activity at human recombinant MC4 receptor expressed in BHK570 cells assessed as induction of […] accumulation in presence of 0.1% human serum albumin
The following compounds are listed with their measured EC50 values.
Provide only the numeric value, understood in nM.

// below: answered compounds
>>> data_value("CCCC[C@H](NC(=O)[C@@H](N)CNC(=O)[C@H](Cc1cnc[nH]1)NC(=O)[C@H](CCC(N)=O)NC(=O)[C@H](CO)NC(=O)CNC(=O)COCCOCCNC(=O)CCCCCCCCCCCCCCCc1nnn[nH]1)C(=O)N[C@H]1CCC(=O)NCCCC[C@@H](C(N)=O)NC(=O)[C@H](Cc2c[nH]c3ccccc23)NC(=O)[C@H](CCCN=C(N)N)NC(=O)[C@@H](Cc2ccccc2)NC(=O)[C@@H]2C[C@@H](O)CN2C1=O")
85
>>> data_value("CCCCCCCCCCCCCCCC(=O)NCC(=O)N[C@@H](CO)C(=O)N[C@@H](CCC(N)=O)C(=O)N[C@@H](CCCCNC(=N)N)C(=O)N[C@@H](CO)C(=O)N[C@@H](CCCC)C(=O)N[C@H]1CCC(=O)NCCCC[C@@H](C(N)=O)NC(=O)[C@H](Cc2c[nH]c3ccccc23)NC(=O)[C@H](CCCNC(=N)N)NC(=O)[C@@H](Cc2ccccc2)NC(=O)[C@@H]2C[C@@H](O)CN2C1=O")
0.04
>>> data_value("CCCC[C@H](NC(=O)[C@H](CNC(=O)CN(CC(=O)O)CC(=O)O)NC(=O)[C@H](Cc1cnc[nH]1)NC(=O)[C@H](CCC(N)=O)NC(=O)[C@H](CO)NC(=O)CNC(=O)COCCOCCNC(=O)CCCCCCCCCCCCCCCc1nnn[nH]1)C(=O)N[C@H]1CCC(=O)NCCCC[C@@H](C(N)=O)NC(=O)[C@H](Cc2c[nH]c3ccccc23)NC(=O)[C@H](CCCN=C(N)N)NC(=O)[C@@H](Cc2ccccc2)NC(=O)[C@@H]2C[C@@H](O)CN2C1=O")
88

[in] Need EC50 of CCCCCCCCCCCCCCCC(=O)NCC(=O)N[C@@H](CO)C(=O)N[C@@H](CCC(N)=O)C(=O)N[C@@H](Cc1cnc[nH]1)C(=O)N[C@@H](CO)C(=O)N[C@@H](CCCC)C(=O)N[C@H]1CCC(=O)NCCCC[C@@H](C(N)=O)NC(=O)[C@H](Cc2c[nH]c3ccccc23)NC(=O)[C@H](CCCNC(=N)N)NC(=O)[C@@H](Cc2ccccc2)NC(=O)[C@@H]2C[C@@H](O)CN2C1=O , thanks.
[out] 0.17

[in] Ok, now CCCC[C@H](NC(=O)[C@H](CCC(=O)O)NC(=O)[C@H](CCCN=C(N)N)NC(=O)[C@H](CCC(=O)O)NC(=O)[C@H](CCC(=O)O)NC(=O)CNC(=O)COCCOCCNC(=O)CCCCCCCCCCCCCCCc1nnn[nH]1)C(=O)N[C@H]1CCC(=O)NCCCC[C@@H](C(N)=O)NC(=O)[C@H](Cc2c[nH]c3ccccc23)NC(=O)[C@H](CCCN=C(N)N)NC(=O)[C@@H](Cc2ccccc2)NC(=O)[C@@H]2C[C@@H](O)CN2C1=O
[out] 270

[in] Try CCCC[C@H](NC(=O)[C@H](CCCNC(=N)N)NC(=O)[C@H](Cc1cnc[nH]1)NC(=O)[C@H](CCC(N)=O)NC(=O)[C@H](CO)NC(=O)CNC(=O)COCCOCCNC(=O)CCCCCCCCCCCCCCCc1nnn[nH]1)C(=O)N[C@H]1CCC(=O)NCCCC[C@@H](C(N)=O)NC(=O)[C@H](Cc2c[nH]c3ccccc23)NC(=O)[C@H](CCCNC(=N)N)NC(=O)[C@@H](Cc2ccccc2)NC(=O)[C@@H]2C[C@@H](O)CN2C1=O next.
[out] 4.7

[in] Again, but for CCCC[C@H](NC(=O)[C@H](CO)NC(=O)[C@H](Cc1cnc[nH]1)NC(=O)[C@H](CCC(N)=O)NC(=O)[C@H](CO)NC(=O)CNC(=O)COCCOCCNC(=O)CCCCCCCCCCCCCCCc1nnn[nH]1)C(=O)N[C@H]1CCC(=O)NCCCC[C@@H](C(N)=O)NC(=O)[C@H](Cc2c[nH]c3ccccc23)NC(=O)[C@H](CCCNC(=N)N)NC(=O)[C@@H](Cc2ccccc2)NC(=O)[C@@H]2C[C@@H](O)CN2C1=O
[out] 170

[in] Now consider CCCC[C@H](NC(=O)[C@H](CO)NC(=O)[C@H](Cc1cnc[nH]1)NC(=O)[C@H](CCC(N)=O)NC(=O)[C@H](CO)NC(=O)CNC(C)=O)C(=O)N[C@H]1CCC(=O)NCCCC[C@@H](C(N)=O)NC(=O)[C@H](Cc2c[nH]c3ccccc23)NC(=O)[C@H](CCCNC(=N)N)NC(=O)[C@@H](Cc2ccccc2)NC(=O)[C@@H]2C[C@@H](O)CN2C1=O .
[out] 2
